assay-explanation: Glass transition temperature by DSC
Type: physicochemical
conditions: neat drug, salt or polymer
Labelling: Tg reported below 100 °C becomes y; at or above becomes n.

Example cases with answers are listed next.
1. C[C@]1(COc2ccc(N3CCC(Oc4ccc(OC(F)(F)F)cc4)CC3)cc2)Cn2cc([N+](=O)[O-])nc2O1.C[C@]1(COc2ccc(N3CCC(Oc4ccc(OC(F)(F)F)cc4)CC3)cc2)Cn2cc([N+](=O)[O-])nc2O1.O=S(=O)(O)CCS(=O)(=O)O [Edisylate (2:1)] ... n
2. C[C@]1(COc2ccc(N3CCC(Oc4ccc(OC(F)(F)F)cc4)CC3)cc2)Cn2cc([N+](=O)[O-])nc2O1.O=S(=O)(O)CCS(=O)(=O)O [DLM-edisylate (1:1)] ... y
3. C[C@]1(COc2ccc(N3CCC(Oc4ccc(OC(F)(F)F)cc4)CC3)cc2)Cn2cc([N+](=O)[O-])nc2O1 [Delamanid] ... y

Field: below-cutoff. Rule: recorded Tg strictly less than 100 °C. Subject: C[C@]1(COc2ccc(N3CCC(Oc4ccc(OC(F)(F)F)cc4)CC3)cc2)Cn2cc([N+](=O)[O-])nc2O1.O=S(=O)(O)c1ccc(Cl)cc1 [Closylate]
y

----------
As shown below, each of these compounds has a reported Water sorption (%) at 95 % RH value.
assay-explanation: Water sorption analysis
Type: physicochemical
conditions: 37 °C, 95% RH
The figure you give is taken to be in %; do not add the unit.

1) CC1(C)[C@@H]2CC[C@@]1(CS(=O)(=O)O)C(=O)C2.C[C@]1(COc2ccc(N3CCC(Oc4ccc(OC(F)(F)F)cc4)CC3)cc2)Cn2cc([N+](=O)[O-])nc2O1 [Camsylate] ... 8.1
2) C[C@]1(COc2ccc(N3CCC(Oc4ccc(OC(F)(F)F)cc4)CC3)cc2)Cn2cc([N+](=O)[O-])nc2O1.O=S(=O)(O)CCS(=O)(=O)O [DLM-edisylate (1:1)] ... 59
3) C[C@]1(COc2ccc(N3CCC(Oc4ccc(OC(F)(F)F)cc4)CC3)cc2)Cn2cc([N+](=O)[O-])nc2O1.O=S(=O)(O)c1ccc(Cl)cc1 [Closylate] ... 5.8

Consider the record given below.
Recorded Water sorption (%) at 95 % RH of C[C@]1(COc2ccc(N3CCC(Oc4ccc(OC(F)(F)F)cc4)CC3)cc2)Cn2cc([N+](=O)[O-])nc2O1.C[C@]1(COc2ccc(N3CCC(Oc4ccc(OC(F)(F)F)cc4)CC3)cc2)Cn2cc([N+](=O)[O-])nc2O1.O=S(=O)(O)CCS(=O)(=O)O [Edisylate (2:1)] , please.
11.6
